- Protocol Details: Antioxidant activity assessed as DPPH free radical scavenging activity at 10 uM
- Assay type: physicochemical
Please use class 1 for Activity under 50% and class 0 for everything else, ties included.

COc1cc(/C=C/c2cc(/C=C/c3ccc(O)c(OC)c3)n(C(N)=S)n2)ccc1O :: class 0
COc1cc(/C=C/C(=O)C(=Cc2ccc(N(C)C)cc2)C(=O)/C=C/c2ccc(O)c(OC)c2)ccc1O :: class 0
COc1cc(C=C(C(=O)/C=C/c2ccc(O)c(OC)c2)C(=O)/C=C/c2ccc(O)c(OC)c2)ccc1O :: class 1
COc1cc(/C=C/c2cc(/C=C/c3ccc(O)c(OC)c3)n(-c3ccc([N+](=O)[O-])cc3[N+](=O)[O-])n2)ccc1O :: class 0
COc1cc(/C=C/C(=O)C(=Cc2ccccc2O)C(=O)/C=C/c2ccc(O)c(OC)c2)ccc1O :: class 1

Ask: is_below(Activity, 50%) for `COc1cc(/C=C/C(=O)CC(=O)/C=C/c2ccc(O)c(OC)c2)ccc1O` ?
Reply: class 1

Ask: Determine if `COc1cc(/C=C/c2cc(/C=C/c3ccc(O)c(OC)c3)n(C(=O)c3ccncc3)n2)ccc1O` shows Activity strictly lower than 50%.
Reply: class 0

###

- Protocol Details: Antioxidant activity assessed as DPPH free radical scavenging activity at 20 uM
- Type: physicochemical
Record 1 whenever Activity is at 80% or higher; record 0 when lower.

Ask: Quick check: does `COc1cc(/C=C/c2cc(/C=C/c3ccc(O)c(OC)c3)n(C(N)=O)n2)ccc1O` have Activity greater than or equal to 80%?
Reply: 0

Ask: Reported Activity at or above 80%? `COc1cc(/C=C/C(=O)CC(=O)/C=C/c2ccc(O)c(OC)c2)ccc1O`
Reply: 0

Ask: Is Activity at least 80%? Consider `COc1cc(/C=C/C(=O)C(=Cc2ccccc2)C(=O)/C=C/c2ccc(O)c(OC)c2)ccc1O`
Reply: 0

Ask: Given `COc1cc(/C=C/C(=O)C(=Cc2ccccc2O)C(=O)/C=C/c2ccc(O)c(OC)c2)ccc1O` , state whether its Activity is at least 80%.
Reply: 0

Ask: Please tell me: is the molecule `COc1cc(C=C(C(=O)/C=C/c2ccc(O)c(OC)c2)C(=O)/C=C/c2ccc(O)c(OC)c2)ccc1O` at or over 80% in terms of Activity?
Reply: 0

Ask: Tell me whether Activity is at least 80% here: `COc1cc(/C=C/c2cc(/C=C/c3ccc(O)c(OC)c3)n(C(=O)c3ccncc3)n2)ccc1O`
Reply: 1

###

- Protocol Details: Antioxidant activity assessed as nitric oxide free radical scavenging activity at 2 uM
- Assay type: physicochemical
Readout: Activity (%)
Reply numerically in %, unit not repeated.

Solved entries:
COc1cc(/C=C/c2cc(/C=C/c3ccc(O)c(OC)c3)n(C(N)=S)n2)ccc1O :: 32.3
COc1cc(/C=C/c2cc(/C=C/c3ccc(O)c(OC)c3)n(-c3ccc([N+](=O)[O-])cc3[N+](=O)[O-])n2)ccc1O :: 15.5
COc1cc(/C=C/c2cc(/C=C/c3ccc(O)c(OC)c3)n(C(N)=O)n2)ccc1O :: 29.9

Ask: Sample COc1cc(/C=C/C(=O)CC(=O)/C=C/c2ccc(O)c(OC)c2)ccc1O [CURCUMIN] — what was its Activity?
Reply: 12.2

Ask: Requested field: Activity. Item: `COc1cc(/C=C/C(=O)C(=Cc2ccc(N(C)C)cc2)C(=O)/C=C/c2ccc(O)c(OC)c2)ccc1O`
Reply: 12.8

Ask: Item under review: `COc1cc(/C=C/C(=O)C(=Cc2ccccc2O)C(=O)/C=C/c2ccc(O)c(OC)c2)ccc1O` . Reported Activity?
Reply: 24.2

Ask: Could you tell me which Activity is on file for `COc1cc(/C=C/C(=O)C(=Cc2ccccc2)C(=O)/C=C/c2ccc(O)c(OC)c2)ccc1O` ?
Reply: 16.2

Ask: Reported Activity for `COc1cc(/C=C/c2cc(/C=C/c3ccc(O)c(OC)c3)n(C(=O)c3ccncc3)n2)ccc1O` : what is it?
Reply: 31.2

Ask: Looking for the measured Activity of `COc1cc(C=C(C(=O)/C=C/c2ccc(O)c(OC)c2)C(=O)/C=C/c2ccc(O)c(OC)c2)ccc1O` , can you help?
Reply: 28.8
